B1: RNA-binding E3 ubiquitin-protein ligase MEX3C, residues 325 to 391; numbered along this chain, Q5U5Q3 (parent)
chain: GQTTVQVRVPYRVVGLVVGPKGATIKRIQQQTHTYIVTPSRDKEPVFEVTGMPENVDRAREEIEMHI

- Variants of: B1
- Assay Overview: abundance fitness (aPCA) (normalised: wild type 0, dead -1); higher = more abundant; growth selection in yeast, the domain comes from the species named
- Condition Parameters: Homo sapiens
Recorded Metric: abundance fitness
Output: the number by itself.

Problem: Give the measured abundance fitness of GQTTVQVRVPYRVVGLVVGPKGATIKRIQQQTFTYIVTPSRDKEPVFEVTGMPENVDRAREEIEMHI [H33F] .
Result: -0.438

Problem: Give the measured abundance fitness of GQTTVQVRVPYRVVGLVVGPKGATIKRIQQQTHTYIHTPSRDKEPVFEVTGMPENVDRAREEIEMHI [V37H] .
Result: -0.582

Problem: Give the measured abundance fitness of GQTTVQVRVPYRVVGLVVGPKGATIKRIQQQTHTYIVTPSRDKEPVFEYTGMPENVDRAREEIEMHI [V49Y] .
Result: -0.804

Problem: Give the measured abundance fitness of GQTTVQVRVPYRVVGLVVGPDGATIKRIQQQTHTYIVTPSRDKEPVFEVTGMPENVDRAREEIEMHI [K21D] .
Result: -0.19

Problem: Give the measured abundance fitness of GQTTVQVRVPYRVVGLVVGPKGETIKRIQQQTHTYIVTPSRDKEPVFEVTGMPENVDRAREEIEMHI [A23E] .
Result: -0.082

Problem: Give the measured abundance fitness of GQTTVQVRVPYRVVGLVVGPKGATIKRIQQQTHTYIVTPSRDKEPVFERTGMPENVDRAREEIEMHI [V49R] .
Result: -0.788
